Molecular target: T1, human TREM2 (human, UniProt Q9NZC2 19-174, limits assumed)
T1 construct: also called triggering receptor expressed on myeloid cells 2
T1 sequence: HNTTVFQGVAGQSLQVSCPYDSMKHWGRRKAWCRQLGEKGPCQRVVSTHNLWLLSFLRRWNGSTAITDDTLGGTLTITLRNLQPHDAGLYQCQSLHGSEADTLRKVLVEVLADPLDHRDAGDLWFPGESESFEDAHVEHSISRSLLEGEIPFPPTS
Test: 2nd screen, 100 nM
readout_type: Binding Signal

binder	Binding Signal
V56 (antibody, V domains shown, also called 6E7 variant V56) VH: EVQLVQSGAEVKKPGESLKISCKGSGYSFTSYWIAWVRQMPGKGLEWMGIIYPGDSDTRYQPSFQGQVTISADKSISTAYLQWSSLKASDTAMYFCARQRTFYYDSSDYFDYWGQGTLVTVSS VL: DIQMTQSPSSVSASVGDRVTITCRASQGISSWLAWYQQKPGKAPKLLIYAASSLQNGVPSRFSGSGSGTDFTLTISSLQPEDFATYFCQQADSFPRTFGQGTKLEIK	0.59 fold over 6E7 parental antibody
V44 (antibody, V domains shown, also called 6E7 variant V44; LV-16/HV-204) VH: EVQLVQSGAEVKKPGESLKISCKGSGYSFTSYWIAWVRQMPGKGLEWMGIIYPSDSDTRYSPSFQGQVTISADKSISTAYLQWSSLKASDTAMYFCARQRTFYYDSSDYFDYWGQGTLVTVSS VL: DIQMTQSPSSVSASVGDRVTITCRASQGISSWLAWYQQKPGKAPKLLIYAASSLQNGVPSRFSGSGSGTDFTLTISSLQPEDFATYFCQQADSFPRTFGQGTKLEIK	0.52 fold over 6E7 parental antibody
V57 (antibody, V domains shown, also called 6E7 variant V57; LV-203/HV-15) VH: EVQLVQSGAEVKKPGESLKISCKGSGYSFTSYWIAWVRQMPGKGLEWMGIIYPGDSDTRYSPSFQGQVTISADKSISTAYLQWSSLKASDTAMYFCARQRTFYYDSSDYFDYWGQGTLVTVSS VL: DIQMTQSPSSVSASVGDRVTITCAASQGISSWLAWYQQKPGKAPKLLIYAASSLQNGVPSRFSGSGSGTDFTLTISSLQPEDFATYFCQQADSFPRTFGQGTKLEIK	0.85 fold over 6E7 parental antibody
V7 (antibody, V domains shown, also called 6E7 variant V7) VH: EVQLVQSGAEVKKPGESLKISCKGSGYSFTSEWIAWVRQMPGKGLEWMGIIYPGDSDTRYSPSFQGQVTISADKSISTAYLQWSSLKASDTAMYFCARQRTFYYDSSDYFDYWGQGTLVTVSS VL: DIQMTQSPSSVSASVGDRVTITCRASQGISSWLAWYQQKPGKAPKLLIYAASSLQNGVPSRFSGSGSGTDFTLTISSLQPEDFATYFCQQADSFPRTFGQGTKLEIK	0.32 fold over 6E7 parental antibody

Q) Bench note: what Binding Signal did V30 (antibody, V domains shown, also called 6E7 variant V30; LV-16/HV-202) VH: EVQLVQSGAEVKKPGESLKISCKGSGSSFTSYWIAWVRQMPGKGLEWMGIIYPGDSDTRYSPSFQGQVTISADKSISTAYLQWSSLKASDTAMYFCARQRTFYYDSSDYFDYWGQGTLVTVSS VL: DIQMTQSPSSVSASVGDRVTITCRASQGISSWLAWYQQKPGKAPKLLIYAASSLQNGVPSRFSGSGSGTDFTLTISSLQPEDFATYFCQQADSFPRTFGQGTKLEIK show?
A) 0.72 fold over 6E7 parental antibody

Q) What about V79 (antibody, V domains shown, also called 6E7 variant V79) VH: EVQLVQSGAEVKKPGESLKISCKGSGYSFTSYWIAWVRQMPGKGLEWMGIIYPGDSDTNYSPSFQGQVTISADKSISTAYLQWSSLKASDTAMYFCARQRTFYYDSSDYFDYWGQGTLVTVSS VL: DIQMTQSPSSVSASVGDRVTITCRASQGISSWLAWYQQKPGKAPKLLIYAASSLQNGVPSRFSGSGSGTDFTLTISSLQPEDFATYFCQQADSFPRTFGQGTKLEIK ?
A) 0.52 fold over 6E7 parental antibody

Q) Proceed to V67 (antibody, V domains shown, also called 6E7 variant V67) VH: EVQLVQSGAEVKKPGESLKISCKGSGYSFTSYWIAWVRQMPGKGLEWMGMIYPGDSDTRYSPSFQGQVTISADKSISTAYLQWSSLKASDTAMYFCARQRTFYYDSSDYFDYWGQGTLVTVSS VL: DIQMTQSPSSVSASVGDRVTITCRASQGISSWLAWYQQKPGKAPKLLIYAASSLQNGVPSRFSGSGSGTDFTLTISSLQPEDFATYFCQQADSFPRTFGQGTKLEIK
A) 0.84 fold over 6E7 parental antibody

src = patent US20250326839A1
